We begin with a simple list: items and their reported SPOT peptide array binding signal intensity.
# target: AgLsb4
# measurement_description: SPOT peptide array binding signal intensity (averaged, normalized) (arbitrary units (background-subtracted, floor 0; scale differs between SH3 domains)); higher = stronger binding of the SH3 domain to the peptide
experimental_readout: SPOT peptide array binding signal intensity

binder: ATKSASPTLPTRRSR
relation_symbol: =
recorded_measurement: 1800
--
binder: DLPLPDLPPEPPTEL
relation_symbol: ≤
recorded_measurement: 0
--
binder: SHRLWLYAAPKRPKT
relation_symbol: =
recorded_measurement: 28.5
--
binder: SPLGAPPPPPHKDHL
relation_symbol: ≤
recorded_measurement: 0
--
binder: GLRRARYKFPGQQKI
relation_symbol: =
recorded_measurement: 32.5
--
binder: GAGERPRLVPRPINV
relation_symbol: =
recorded_measurement: 28
--
binder: PLRRTVMSLPGNHDI
relation_symbol: =
recorded_measurement: 4.5
